Source listed as patent US11912682B2.

- Experimental Target: GSPT1 (Homo sapiens (Human), UniProt P15170+Q96SW2)
- Sequence (P15170 whole entry): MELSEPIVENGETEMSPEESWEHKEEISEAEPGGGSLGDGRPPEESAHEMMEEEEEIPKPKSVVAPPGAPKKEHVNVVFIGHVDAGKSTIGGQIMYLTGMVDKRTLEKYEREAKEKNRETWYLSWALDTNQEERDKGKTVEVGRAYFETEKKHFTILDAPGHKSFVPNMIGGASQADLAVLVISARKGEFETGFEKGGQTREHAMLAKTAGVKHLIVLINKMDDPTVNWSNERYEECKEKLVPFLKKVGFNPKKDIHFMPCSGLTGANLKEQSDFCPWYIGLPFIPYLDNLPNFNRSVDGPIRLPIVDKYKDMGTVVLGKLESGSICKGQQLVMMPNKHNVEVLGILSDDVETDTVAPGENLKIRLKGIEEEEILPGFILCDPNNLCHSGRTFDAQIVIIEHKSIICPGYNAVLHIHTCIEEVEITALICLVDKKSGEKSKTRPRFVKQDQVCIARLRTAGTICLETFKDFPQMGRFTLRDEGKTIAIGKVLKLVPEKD
- Sequence (Q96SW2 whole entry): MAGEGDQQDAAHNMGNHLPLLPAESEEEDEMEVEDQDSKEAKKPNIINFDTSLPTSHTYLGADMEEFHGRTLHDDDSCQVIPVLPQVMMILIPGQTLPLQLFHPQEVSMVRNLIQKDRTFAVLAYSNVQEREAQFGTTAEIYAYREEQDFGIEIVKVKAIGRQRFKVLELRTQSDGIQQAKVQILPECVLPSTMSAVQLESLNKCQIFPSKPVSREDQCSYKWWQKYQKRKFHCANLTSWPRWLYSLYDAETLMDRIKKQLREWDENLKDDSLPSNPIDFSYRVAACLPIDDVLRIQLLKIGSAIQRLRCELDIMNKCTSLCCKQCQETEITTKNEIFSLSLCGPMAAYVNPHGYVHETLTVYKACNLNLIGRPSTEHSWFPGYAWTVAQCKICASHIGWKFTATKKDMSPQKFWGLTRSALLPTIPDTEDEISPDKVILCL
- Sequence (Q16531 2-1140 partner): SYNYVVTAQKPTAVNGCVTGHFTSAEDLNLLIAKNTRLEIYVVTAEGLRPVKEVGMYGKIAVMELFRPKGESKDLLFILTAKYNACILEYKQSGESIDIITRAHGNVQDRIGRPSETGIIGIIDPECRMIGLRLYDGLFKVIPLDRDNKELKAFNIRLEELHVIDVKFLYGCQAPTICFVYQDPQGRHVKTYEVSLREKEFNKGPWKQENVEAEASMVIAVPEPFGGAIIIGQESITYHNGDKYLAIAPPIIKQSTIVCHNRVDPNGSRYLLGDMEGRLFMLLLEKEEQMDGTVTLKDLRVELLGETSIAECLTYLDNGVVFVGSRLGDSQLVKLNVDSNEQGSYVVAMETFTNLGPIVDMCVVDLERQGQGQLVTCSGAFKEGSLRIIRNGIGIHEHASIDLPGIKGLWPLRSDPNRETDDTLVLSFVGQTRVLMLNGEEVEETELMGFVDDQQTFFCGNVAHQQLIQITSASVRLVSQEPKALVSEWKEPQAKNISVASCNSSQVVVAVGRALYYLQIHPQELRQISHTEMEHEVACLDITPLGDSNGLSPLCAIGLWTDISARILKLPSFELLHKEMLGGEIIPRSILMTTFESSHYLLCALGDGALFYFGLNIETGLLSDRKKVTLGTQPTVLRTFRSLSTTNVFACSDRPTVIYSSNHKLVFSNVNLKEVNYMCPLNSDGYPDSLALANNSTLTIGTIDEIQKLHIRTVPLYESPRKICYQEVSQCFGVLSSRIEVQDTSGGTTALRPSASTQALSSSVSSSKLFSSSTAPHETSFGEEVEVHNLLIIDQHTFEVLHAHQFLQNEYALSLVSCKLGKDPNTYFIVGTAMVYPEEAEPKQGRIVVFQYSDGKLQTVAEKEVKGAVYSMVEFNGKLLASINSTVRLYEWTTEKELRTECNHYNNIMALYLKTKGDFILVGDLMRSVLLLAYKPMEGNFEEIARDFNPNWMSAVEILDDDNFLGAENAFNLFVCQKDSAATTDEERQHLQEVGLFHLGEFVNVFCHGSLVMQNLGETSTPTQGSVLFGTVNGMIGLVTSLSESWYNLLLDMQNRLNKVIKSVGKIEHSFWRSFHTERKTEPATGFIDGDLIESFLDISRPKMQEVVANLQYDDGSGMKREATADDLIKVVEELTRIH
- Assay Method Text: immunofluorescence assay for GSPT1 degradation in CAL-51 cells (Example 4)
- Type: cell-based
- Protocol Conditions: 6 hours, read-out: Activity for GSPT1 degradation, Code (DC50)

[
  {
    "Molecule": "CC(OC(=O)Nc1cccc(OC(F)(F)F)c1)c1ccc2c(c1)C(=O)N(C1CCC(=O)NC1=O)C2 (stereo not drawn)",
    "DC50": "> 0.3 µM"
  },
  {
    "Molecule": "O=C1CCC(N2Cc3ccc(COC(=O)Nc4cc(OC(F)(F)F)ccc4F)cc3C2=O)C(=O)N1 (stereo not drawn)",
    "DC50": "0.03 to 0.3 µM"
  },
  {
    "Molecule": "O=C1CCC(N2Cc3ccc(COC(=O)Nc4ccc(C5COC5)cc4)cc3C2=O)C(=O)N1 (stereo not drawn)",
    "DC50": "0.03 to 0.3 µM"
  },
  {
    "Molecule": "O=C1CCC(N2Cc3ccc(COC(=O)Nc4cc(OC(F)(F)F)ccc4Cl)cc3C2=O)C(=O)N1 (stereo not drawn)",
    "DC50": "> 0.3 µM"
  },
  {
    "Molecule": "Cc1cc(F)c(NC(=O)OCc2ccc3c(c2)C(=O)N(C2CCC(=O)NC2=O)C3)cc1Cl (stereo not drawn)",
    "DC50": "0.03 to 0.3 µM"
  },
  {
    "Molecule": "O=C1CCC(N2Cc3ccc(COC(=O)Nc4cc(CN5CCOCC5)cc(OC(F)F)c4)cc3C2=O)C(=O)N1 (stereo not drawn)",
    "DC50": "< 0.03 µM"
  },
  {
    "Molecule": "O=C1CCC(N2Cc3ccc(COC(=O)Nc4ccc(-c5ccccn5)cc4F)cc3C2=O)C(=O)N1 (stereo not drawn)",
    "DC50": "< 0.03 µM"
  },
  {
    "Molecule": "CC(C)(C)C12CC(NC(=O)OCc3ccc4c(c3)C(=O)N(C3CCC(=O)NC3=O)C4)(C1)C2 (stereo not drawn)",
    "DC50": "0.03 to 0.3 µM"
  },
  {
    "Molecule": "O=C1CCC(N2Cc3ccc(COC(=O)Nc4cc(F)c(-c5ccccc5)c(F)c4)cc3C2=O)C(=O)N1 (stereo not drawn)",
    "DC50": "0.03 to 0.3 µM"
  },
  {
    "Molecule": "O=C1CCC(N2Cc3ccc(COC(=O)Nc4ccc(N5CC6CCC(C5)O6)nc4)cc3C2=O)C(=O)N1 (stereo not drawn)",
    "DC50": "> 0.3 µM"
  },
  {
    "Molecule": "Cc1c(F)cc(NC(=O)OCc2ccc3c(c2)C(=O)N(C2CCC(=O)NC2=O)C3)cc1CN1CCOCC1 (stereo not drawn)",
    "DC50": "< 0.03 µM"
  },
  {
    "Molecule": "O=C1CCC(N2Cc3ccc(COC(=O)N4CCCC4)cc3C2=O)C(=O)N1 (stereo not drawn)",
    "DC50": "> 0.3 µM"
  },
  {
    "Molecule": "O=C1CCC(N2Cc3ccc(COC(=O)Nc4ccc(OC(F)(F)F)cc4)cc3C2=O)C(=O)N1 (stereo not drawn)",
    "DC50": "0.03 to 0.3 µM"
  },
  {
    "Molecule": "O=C1CCC(N2Cc3ccc(COC(=O)Nc4ccc(-c5ccccc5)c(F)c4)cc3C2=O)C(=O)N1 (stereo not drawn)",
    "DC50": "0.03 to 0.3 µM"
  },
  {
    "Molecule": "CC(C)(C)c1ccc(NC(=O)OCc2ccc3c(c2)C(=O)N(C2CCC(=O)NC2=O)C3)nc1 (stereo not drawn)",
    "DC50": "0.03 to 0.3 µM"
  },
  {
    "Molecule": "CC1(c2ccc(NC(=O)OCc3ccc4c(c3)C(=O)N(C3CCC(=O)NC3=O)C4)cc2)CC1 (stereo not drawn)",
    "DC50": "< 0.03 µM"
  },
  {
    "Molecule": "O=C1CCC(N2Cc3ccc(COC(=O)Nc4cc(OCCN5CCOCC5)cc(OC(F)F)c4)cc3C2=O)C(=O)N1 (stereo not drawn)",
    "DC50": "< 0.03 µM"
  },
  {
    "Molecule": "CC1(C)COc2cc(NC(=O)OCc3ccc4c(c3)C(=O)N(C3CCC(=O)NC3=O)C4)ccc21 (stereo not drawn)",
    "DC50": "< 0.03 µM"
  }
]
